Where do these numbers come from? They come from PubChem BioAssay AID1159580.

Test: chemical genetic growth profiling, strain panel (AID 1159580);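 note: tested at 20 µM; growth read once vehicle control cultures reached saturation at 30 °C; 1 = growth at the plate median or of vehicle wells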
Details: S. cerevisiae deletion strains, growth OD, locus YDR195W, strain ref2
Hit rate of the full screen: of about 5,500 compounds, about 2,000 (36%) were called active. Not shown: some 18% with an inconclusive outcome. Cut-off read from the data, not from the text of the source: active = normalized growth mostly below about 0.91 (no sharp cut-off); inconclusive = no clear call, values can overlap the other calls; inactive = mostly above about 0.92. The list shows a part of the results.
Mark one answer only. Choices: 1.0 (active), 0.0 (inactive)

S=c1nc[nH]c2nc[nH]c12	0.0
CC(=O)NC1SCCC1=O (stereo not given)	0.0
CCOC(=O)CCC(=O)O[C@H]1[C@H](O[C@@H]2[C@@H](C)[C@H](O[C@H]3C[C@@](C)(OC)[C@@H](O)[C@H](C)O3)[C@@H](C)C(=O)O[C@H](CC)[C@@](C)(O)[C@H](O)[C@@H](C)C(=O)[C@H](C)C[C@@]2(C)O)O[C@H](C)C[C@@H]1N(C)C	0.0
CCCCCCCCNC(C)C(O)c1ccc(SC(C)C)cc1 (stereo not given)	1.0
CCN(CCO)CCCC(C)Nc1ccnc2cc(Cl)ccc12 (stereo not given)	0.0

Recorded call for "CC(=O)O[C@H]1[C@@H]2[C@@H](OC(=O)Cc3ccccc3)[C@@H](C)C[C@]2(OC(C)=O)C(=O)/C(C)=C/[C@H]2[C@H](CC[C@@]13CO3)C2(C)C" ? 0.0

---

Assay: chemical genetic growth profiling, strain panel (AID 1159580)
Conditions: S. cerevisiae deletion strains, growth OD, locus YPR141C, strain kar3, hits give low values
About 2,000 (36%) of roughly 5,500 compounds were called active. About 18% were inconclusive and are not listed. Some of the results follow.
Rule for this label: TRUE means normalized growth is less than 1; FALSE means normalized growth is at least 1.

Study these solved cases before continuing.
COc1ccc2c(c1)O[C@@H]1COc3cc(OC)c(OC)cc3[C@@H]1C2=O	TRUE
C[C@]12CCC(=O)C=C1CCC1C2CC[C@@]2(C)C1CC[C@@H]2O (stereo partly specified)	FALSE
CCOC(=O)C(=O)C1(C(=O)OCC)Oc2cc(OC)cc(OC)c2C(=O)C1c1ccccc1 (stereo unspecified)	TRUE
COc1cc2c(cc1OC)[C@@H]1C(=O)c3ccc4oc(C(C)C)cc4c3O[C@@H]1CO2	FALSE
CC(=O)[C@H]1CCC2C3CCC4=CC(=O)CC[C@]4(C)C3CC[C@@]21C (stereo partly specified)	TRUE

Now consider the entry below.
Strictly below 1: is that where normalized growth of "c1ccc(N=Nc2ccccc2)cc1" sits? FALSE

---

Each entry below lists one item and its recorded normalized growth value.
Assay: chemical genetic growth profiling, strain panel (AID 1159580)
Conditions: S. cerevisiae deletion strains, growth OD, locus YJL187C, strain SWE1 (second series), hits give low values
In all, about 5,500 compounds went through this assay and about 2,000 (36%) were called active. About 18% were inconclusive and are not listed. The list shows a part of the results.
Give only the figure.

// worked examples, normalized growth included
CCOC(=O)c1c(C)cc(O)c(C)c1O	0.996
CC1=C(C(C)O)C2=NC1C=c1[nH]c(c(C)c1C(C)O)=Cc1[nH]c(c(CCC(=O)O)c1C)C=c1[nH]c(c(C)c1CCC(=O)O)=C2 (stereo not drawn)	1

Shift focus to the following entry.
So what's the measured normalized growth for this one? CCOC(=O)C(Cc1ccc(O)cc1)NC(C)=O (stereo not drawn) 1.02

---

Assay: chemical genetic growth profiling, strain panel (AID 1159580)
Conditions: S. cerevisiae deletion strains, growth OD, locus YOL147C, strain pex11, hits give low values
In all, about 5,500 compounds went through this assay and about 2,000 (36%) were called active. Inconclusive results (about 18%) are left out. This is one part of the list.
# key: entry, value: normalized growth

Field: example entries. Status: answers known.
COc1cc2c(cc1OC)C1C(=O)c3ccc4c(c3OC1CO2)CCC(C)(C)O4 (centres undefined)	1 (inactive)
NC(=O)c1ccc[n+]([C@@H]2O[C@H](COP(=O)([O-])OP(=O)(O)OC[C@H]3O[C@@H](n4cnc5c(N)ncnc54)[C@H](O)[C@@H]3O)[C@@H](O)[C@H]2O)c1	0.994 (inactive)
CC(=O)N[C@@H](CC(C)C)C(=O)O	0.98 (inactive)

Query: normalized growth; subject: "CCOC(=O)[C@H](CCc1ccccc1)N[C@H]1CCc2ccccc2N(CC(=O)O)C1=O" 0.975 (inactive)

---

Assay: chemical genetic growth profiling, strain panel (AID 1159580)
Conditions: S. cerevisiae deletion strains, growth OD, locus YHR027C, strain rpn1, hits give low values
Among all 5,500 compounds or so, about 2,000 (36%) were called active. Inconclusive results (about 18%) are left out. Some of the results follow.
# normalized growth annotations
Please respond with just the number, no unit label.

O=C1C=CC(=C(c2ccc(O)cc2)c2ccc(O)cc2)C=C1	1
CC(NCCc1ccc(O)cc1)C(O)c1ccc(O)cc1 (centres undefined)	1.01
Cc1cc(O)c(C)c(O)c1C(=O)O	0.997

Read the next record carefully.
I am curious: what normalized growth value has been reported for C[C@H]1CC2C([C@@H](O)C[C@@]3(C)C2CC[C@]3(O)C(=O)CO)[C@@]2(C)C=CC(=O)C=C12 (some centres undefined) ? 1

---

Test: chemical genetic growth profiling, strain panel (AID 1159580)
Details: S. cerevisiae deletion strains, growth OD, locus YDL028C, strain MPS1, hits give low values
In all, about 5,500 compounds went through this assay and about 2,000 (36%) were called active. Not shown: some 18% with an inconclusive outcome. The list shows a part of the results.
MEASUREMENT_TYPE: normalized growth
Could you respond with only the numeric value?

Sample records with normalized growth:
Cc1ccccc1C(=O)Oc1ccc(C(F)(F)F)cc1[N+](=O)[O-]	0.947
COc1ccc(/C=C2\CSc3ccc(F)cc3C2=O)cc1	0.931
CSC1=NNC(c2nn(C)cc2Cl)S1 (centres undefined)	0.551
Cc1ccc(Sc2c(Sc3ccc(C)cc3)c(=O)c2=O)cc1	0.961
Cc1ccc2nc(-c3ccc(Cl)cc3)cn2c1	0.974
CCOC(=O)CSC(=S)NCc1ccc(C)cc1	0.947

Looking for the measured normalized growth of "Cc1cc(Cl)ccc1NNC(=O)c1ccno1" , can you help? 0.979

Reported normalized growth, compound "COc1cc(NC(=S)N(C)C)c(OC)cc1Cl" : ____ 0.987

Which measured normalized growth value corresponds to "O=C(CSc1nnnn1-c1ccccc1)c1ccccc1" ? 0.949

What measured normalized growth goes with "Cc1cc(C(=O)Nc2ccc(Cl)cc2)nn1C(C)(C)C" ? 1.01

---

Experiment: chemical genetic growth profiling, strain panel (AID 1159580);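 note: tested at 20 µM; growth read once vehicle control cultures reached saturation at 30 °C; 1 = growth at the plate median or of vehicle wells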
Settings: S. cerevisiae deletion strains, growth OD, locus YDL040C, strain nat1, hits give low values
In all, about 5,500 compounds went through this assay and about 2,000 (36%) were called active. About 18% were inconclusive and are not listed. The list shows a part of the results.
MEASUREMENT_TYPE: normalized growth

Record excerpt, results attached:
CO[C@H]1[C@H](O)[C@H](O[C@H]2CC[C@]3(C)C4CC[C@]5(C)C(C6=CC(=O)OC6)CC[C@]5(O)C4CC[C@@H]3C2)O[C@@H](C)[C@@H]1O (some centres undefined)	1.02 (inactive)
CC(C)c1c(C(=O)c2ccccc2)c(-c2ccccc2)c(-c2ccc(F)cc2)n1CC[C@@H](O)C[C@@H](O)CC(=O)O	0.99 (inactive)
CC(Oc1ccccc1)C(=O)N[C@@H]1C(=O)N2[C@@H]1SC(C)(C)[C@@H]2C(=O)O (some centres undefined)	0.995 (inactive)

GET /values?readout=normalized growth&item= "CN1CCC(=C2c3ccccc3Sc3ccccc32)CC1" 1.01 (inactive)

For "CC(=O)O[C@H]1[C@@H]2[C@@H](OC(=O)Cc3ccccc3)[C@@H](C)C[C@]2(OC(C)=O)C(=O)/C(C)=C/[C@H]2[C@H](CC[C@@]13CO3)C2(C)C" , what is its reported normalized growth? 0.978 (inactive)

---

// reported normalized growth for each item listed
Assay: chemical genetic growth profiling, strain panel (AID 1159580);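 note: tested at 20 µM; growth read once vehicle control cultures reached saturation at 30 °C; 1 = growth at the plate median or of vehicle wells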
Settings: S. cerevisiae deletion strains, growth OD, locus YOR119C, strain RIO1, hits give low values
About 2,000 (36%) of roughly 5,500 compounds were called active. Roughly 18% stayed inconclusive and do not appear here. The list shows a part of the results.
Respond using a number only.

Previously resolved entries follow.
Nc1ccccc1SCc1c(Cl)cccc1Cl	0.905
Cc1ccc(-c2csc(-c3cccnc3)n2)c(C)c1	0.881

Proceed to the following item.
I would be grateful if you could share the reported normalized growth for O=C1C(=O)N(CN2CCc3c([nH]c4ccccc34)C2C(F)(F)F)c2ccc(F)cc21 (stereo not drawn) . 0.907

---

Each entry below lists one item and its recorded normalized growth value.
Assay: chemical genetic growth profiling, strain panel (AID 1159580);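 note: tested at 20 µM; growth read once vehicle control cultures reached saturation at 30 °C; 1 = growth at the plate median or of vehicle wells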
Conditions: S. cerevisiae deletion strains, growth OD, locus YOR184W, strain ser1, hits give low values
Screen size: about 5,500 compounds; about 2,000 (36%) were called active. Not shown: some 18% with an inconclusive outcome. The list shows a part of the results.
Enter the number alone.

COc1ccc2c(C)cc(=O)oc2c1	1.02
S=c1nc[nH]c2nc[nH]c12	0.996
CC[C@H](/C=C/C(C)C1CCC2C3CCC4=CC(=O)CC[C@]4(C)C3CC[C@]12C)C(C)C (some centres undefined)	0.999

Which normalized growth is reported for this compound? CCCCCCCCNC(C)C(O)c1ccc(SC(C)C)cc1 (centres undefined) 0.0604
